assay: Volume of distribution at steady state in Sprague-Dawley rat at 5 mg/kg, iv measured upto 24 hrs by LC/MS/MS analysis; type: ADME, organism-based; details: in vivo, read-out: Vdss
Endpoint Name: Vd (L/kg)
API: value field is a number in L/kg; no unit string.

Mol Smiles	Endpoint Name	Result Number
Nc1ncc(-c2cc3ccccc3o2)c(N2CCC3(CCNC3=O)CC2)c1Cl	Vd	1.57

Prompt: Tell me measured Vd for Nc1ncc(-c2cc3ccccc3s2)c(N2CCC3(CCNC3=O)CC2)c1Cl please.
Response: 1.32

====

test: Oral bioavailability in BALB/c mouse at 10 mg/kg measured upto 24 hrs by LC/MS/MS analysis; type: ADME, organism-based; details: in vivo
Quick list: bioavailability per entry.
API: value field is a number in %; no unit string.

Mol Smiles	Endpoint Name	Value Units	Result Number
Nc1ncc(-c2cc3ccccc3s2)c(N2CCC3(CCNC3=O)CC2)c1Cl	bioavailability	%	28

Kindly consider the entry below.
Prompt: Tell me measured bioavailability for Nc1ncc(-c2cc3ccccc3o2)c(N2CCC3(CCNC3=O)CC2)c1Cl please.
Response: 33
